Tested on: TK-10 renal
assay.info: NCI tumour cell line growth inhibition, 48 h
property: TGI

- molecule: "N#CC12CNCC1CN=N2 (centres undefined)"
  property: "TGI"
  assay.result: "> 100 µM"

Given O=C1c2cccc([N+](=O)[O-])c2C(=O)N1c1ncn[nH]1 , state its recorded TGI. > 100 µM

Given CC(C)(C)C(=O)OCOP(=O)(OCOC(=O)C(C)(C)C)OCC1OC(n2ccc(=O)[nH]c2=O)C(N=[N+]=[N-])C1O (centres undefined) , state its recorded TGI. 22.3 µM

Given N#Cc1c(=O)n(-c2ccccc2)c(O)c2c(N)n[nH]c12 , state its recorded TGI. > 100 µM

Given CC(C)(C)/C(=N\Nc1nc2ccccc2[nH]1)c1ccccn1 , state its recorded TGI. 67.8 µM

Given NC(=S)N1N=C2c3ccccc3CC[C@@H]2[C@@H]1c1ccccc1 , state its recorded TGI. > 68 µM

Given O=C(N/C(=C\c1cccc([N+](=O)[O-])c1)c1nc2ccc([N+](=O)[O-])cc2[nH]1)c1ccccc1 , state its recorded TGI. > 100 µM

Given O=C(O)/C=C(\c1nc2ccc([N+](=O)[O-])cc2[nH]1)c1cc(Cl)ccc1O , state its recorded TGI. 15.4 µM

----------
Tested on: K-562 leukemia
assay.info: NCI tumour cell line growth inhibition, 48 h
property: TGI

- compound: "O=C(CC1(O)C(=O)Nc2ccccc21)c1ccncc1 (stereo not drawn)"
  experimental.target: "K-562 leukemia"
  TGI: "> 100 µM"

Given COc1ccccc1NC(=S)Nc1cc(C)cc(C)n1 , state its recorded TGI. > 100 µM

Given COc1ccc(/C=C2\CCC(C)C3C2=NN(c2ccccc2)C3c2ccc(OC)c(OC)c2)cc1OC (stereo not drawn) , state its recorded TGI. 18.5 µM

Given COc1ccc2c(c1)C(=O)Cc1ccccc1CC2 , state its recorded TGI. > 100 µM

Given CCOC(=O)/C(C#N)=C/c1[nH]c(C(=O)OCc2ccccc2)c(C)c1C , state its recorded TGI. > 100 µM

Given C[N+](C)(C)CCCSc1nc2ccccc2[nH]1 , state its recorded TGI. > 100 µM

Given N#CC12CNCC1CN=N2 (stereo not drawn) , state its recorded TGI. > 100 µM

Given Cc1cc(Cl)cc2c1NC(=O)C2(O)CC(=O)c1ccco1 (stereo not drawn) , state its recorded TGI. 54.6 µM

----------
Test system: MCF7 breast
assay.info: NCI tumour cell line growth inhibition, 48 h
property: GI50

- compound: "COc1cc[nH]c1/C=C1\\C(=O)Nc2ccc(F)c(C#CC3(O)CCNCC3)c21"
  assay.result: "111 nM"

Given CCCn1c(=S)sc2c1nc(C)n1c(Nc3ccccc3)nnc21 , state its recorded GI50. 6310 nM

Given COc1ccc(-c2nc(-c3nc4ccc(Cl)cc4[nH]3)c3ccccn23)cc1 , state its recorded GI50. 3150 nM

Given O=C(O)CCNC1CCCCC1 , state its recorded GI50. > 100000 nM

Given CCCC(=O)OCC1OC(n2cnc3c(=S)nc[nH]c32)C(OC(=O)CCC)C1OC(=O)CCC (stereo not drawn) , state its recorded GI50. 1950 nM

Given CCN(CC)CCCC(C)Nc1c2ccc(Cl)cc2nc2ccc(O)cc12 (stereo not drawn) , state its recorded GI50. 1400 nM

Given C=C(C[C@](O)(C(=O)/C=C/c1ccc(Cl)cc1)C(=O)OC)c1ccccc1 , state its recorded GI50. 456 nM

Given OCCCNc1nc(=S)[nH]c2[nH]ncc12 , state its recorded GI50. 29800 nM

----------
Test system: SF-539 CNS
assay.info: NCI tumour cell line growth inhibition, 48 h
property: TGI

Given COCCCNC(=O)C1C(=O)C(=O)N(CCCOC)C1=O (centres undefined) , state its recorded TGI. > 100 µM

Given N#CC(C#N)=C1Nc2ccccc2S1 , state its recorded TGI. 93.7 µM

Given NC1=NC(c2ccccc2)CC(c2cc(Cl)ccc2O)=N1 (centres undefined) , state its recorded TGI. 28.5 µM

Given COc1ccc2c(c1)-c1nc(=S)n(CCCN(C)C)c3ccc([N+](=O)[O-])c(c13)N2 , state its recorded TGI. 6.08 µM

Given CS(=O)(=O)c1ccc(-n2nc(C(F)(F)F)cc2OC2CCCC2)cc1 , state its recorded TGI. > 100 µM

Given Nc1nccc(-c2c(-c3ccc(F)cc3)ncn2C2CCC(O)CC2)n1 (centres undefined) , state its recorded TGI. > 25 µM

----------
System: UACC-257 melanoma
assay.info: NCI tumour cell line growth inhibition, 48 h
Let's look at some compounds and their measured TGI.

Guide cases for TGI, answers given:
- molecular.string: "c1ccc2c(c1)CC1=C(O2)c2ccccc2OC1"
  TGI: "> 100 µM"
- molecular.string: "NC12CC3CC(C1)CC(C(=O)O)(C3)C2"
  TGI: "> 100 µM"

Given CC(=O)N(C(C)=O)n1c(Cc2ccc(Cl)cc2)n[nH]c1=O , state its recorded TGI. > 100 µM

----------
System: SNB-75 CNS
assay.info: NCI tumour cell line growth inhibition, 48 h
property: log10 of TGI (log10 of the value in µM)
Friendly reminder: values = log10 of TGI, unit µM.

- molecule: "Cc1ccc(/C(Cl)=C/C=C(C#N)C#N)cc1"
  log10 of TGI: 1.58
- molecule: "Cc1nc(-c2cc3c(ccc4ccccc43)oc2=O)cs1"
  log10 of TGI: 1.88
- molecule: "C=C(C[C@](O)(C(=O)/C=C/c1ccc(Cl)cc1)C(=O)OC)c1ccccc1"
  log10 of TGI: 1.34
- molecule: "COc1ccc2c(c1)CCCN2c1c2ccccc2nc2ccccc12"
  log10 of TGI: -0.09
- molecule: "CCC[CH2][Sn]1([CH2]CCC)[O]C(=O)CN=Cc2c(ccc3ccccc23)[O]1"
  log10 of TGI: 0.01

Given COc1ccc(-c2onc(N)c2-c2cc(OC)c3c(c2)OCO3)cc1 , state its recorded log10 of TGI. 0.86

Given c1ccc(-c2nc3ccccc3n3c(CN4CCCCC4)nnc23)cc1 , state its recorded log10 of TGI. 1.61

Given O=C(Nc1ccc(-c2nc(N3CCOCC3)c3cccn3n2)cc1)Nc1cccnc1 , state its recorded log10 of TGI. -0.19

Given COC(=O)/C=C(/C=C1/C(C#N)=C(N)N(c2ccc(Cl)cc2)C1(C)/C(=C/C(=O)OC)C(=O)OC)C(=O)OC (stereo not given) , state its recorded log10 of TGI. 1.88

Given Oc1c2cc(Cl)cc1COCc1cc(Cl)cc(c1O)COCc1cc(Cl)cc(c1O)COC2 , state its recorded log10 of TGI. 1.80

Given CCCCCCCCCCCCN(CC(O)C(O)C(OC1OC(CO)C(O)C(O)C1O)C(O)CO)C(=O)CCCCCCCCCCC (stereo not given) , state its recorded log10 of TGI. 1.54

Given COc1ccc(N2C(=O)/C(=C/c3ccc(N(CCC#N)CCC#N)cc3C)N=C2c2cc([N+](=O)[O-])ccc2Cl)cc1 , state its recorded log10 of TGI. 0.85

Given CCOC(=O)c1c(NC(=O)c2cccs2)sc2c1CCC2 , state its recorded log10 of TGI. 1.42

Given C/C(Cl)=N/OC(=O)Nc1ccc(S(N)(=O)=O)c(C)c1 , state its recorded log10 of TGI. 1.53

----------
Tested on: OVCAR-8 ovarian
assay.info: NCI tumour cell line growth inhibition, 48 h
property: TGI

- molecular.string: "O/N=C/c1ncccc1C1OCCO1"
  TGI: "> 100 µM"
- molecular.string: "[Cl-].[Rh+3].c1cnc2c(c1)ccc1cccnc12.c1cnc2c(c1)ccc1cccnc12.c1cnc2c(c1)ccc1cccnc12"
  TGI: "> 100 µM"
- molecular.string: "COc1ccc(C[C@@H](CO)NC2=C(C#N)CCC2)cc1"
  TGI: "> 100 µM"

Now consider the entry below.
Given COc1cc2ncnc(Nc3cccc(Cl)c3)c2cc1OC , state its recorded TGI. 26.1 µM

----------
Test system: NCI-H226 lung
assay.info: NCI tumour cell line growth inhibition, 48 h
Let's look at some compounds and their measured TGI.
Quick note: give the figure in µM, leave out the unit.

Guide cases for TGI, answers given:
- compound: "COc1ccc(/C=C2\\CCC(C)C3C2=NN(c2ccccc2)C3c2ccc(OC)c(OC)c2)cc1OC (stereo not given)"
  TGI (µM): 12.9
- compound: "C=C(C[C@](O)(C(=O)/C=C/c1ccc(Cl)cc1)C(=O)OC)c1ccccc1"
  TGI (µM): 16.3
- compound: "N#CC(C#N)=C1Nc2ccccc2S1"
  TGI (µM): 76.8
- compound: "COc1ccc(CC2CCc3nc(N)nc(N)c3C2)cc1OC (stereo not given)"
  TGI (µM): 42.4
- compound: "O=c1oc2ccccc2cc1-c1csc(Nc2ccc(F)cc2)n1"
  TGI (µM): 19.7
- compound: "N#CSC1CCCCNC1=O (stereo not given)"
  TGI (µM): 25.7
- compound: "O=C(CC1C(=O)NN(c2ccc(Br)cc2)C1=O)c1cc(O)ccc1O (stereo not given)"
  TGI (µM): 36.9
- compound: "NC1=NC(c2ccccc2)CC(c2cc(Cl)ccc2O)=N1 (stereo not given)"
  TGI (µM): 37.8
- compound: "CCC(C)(C)C1CCC2c3c([nH]c4ccccc34)C3C(=O)N(c4ccc(OC)cc4)C(=O)C3C2C1 (stereo not given)"
  TGI (µM): 37.3

Given Cc1cc2cc3c(cc2c(-c2ccc([N+](=O)[O-])cc2)n1)OCO3 , state its recorded TGI. 89.8
